System: murine red blood cells (mRBCs)
Details: mouse, 60 min, 1.95 μg/mL
PROPERTY NAME: Percentage of hemolysis (±SDEV) (%)
Write the number in % without appending the unit.

Fc1ccc(N/N=C/c2ccc(-c3ccc(/C=N/Nc4ccc(F)cc4)cc3)cc2)cc1 [Compound 17b] :: 1.1
C/C(=N\Nc1ccc(F)cc1)c1ccc(-c2ccc(/C(C)=N/Nc3ccc(F)cc3)cc2)cc1 [Compound 17c] :: 2.6

Please find the next compound below.
In plain terms, Fc1ccc(N/N=C/c2ccc(-c3cccc(/C=N/Nc4ccc(F)cc4F)c3)cc2)c(F)c1 [Compound 20a] has a documented Percentage of hemolysis (±SDEV) of 4.5

====

Test system: Candida krusei ATCC 6258 (strain I)
Assay: MIC determination, in vitro antifungal assay (CLSI M27-A3)
Assay type: cell-based
Settings: MIC-0, 48 h at 35° C.
// log10(MIC) lookup, one value per entry
Friendly reminder: values = log10 of MIC, unit µg/mL.

COc1cccc(N/N=C(\C)c2ccc(-c3ccc(/C(C)=N/Nc4cccc(OC)c4)cc3)cc2)c1 [Compound 11c] :: -0.01

Entry Fc1cccc(N/N=C/c2ccc(-c3cccc(/C=N/Nc4cccc(F)c4)c3)cc2)c1 [Compound 12a] ; assay system Candida krusei ATCC 6258 (strain I); log10(MIC) recorded at 0.29

The value of log10(MIC) recorded for COc1ccc(N/N=C(\C)c2ccc(-c3ccc(/C(C)=N/Nc4ccc(OC)cc4)cc3)cc2)cc1 [Compound 15c] when tested on Candida krusei ATCC 6258 (strain I) reads 1.19

Measured on Candida krusei ATCC 6258 (strain I), COc1ccc(N/N=C/c2ccc(-c3cccc(/C=N/Nc4ccc(OC)cc4)c3)cc2)cc1 [Compound 15a] has a documented log10(MIC) of 0.59

Assay Candida krusei ATCC 6258 (strain I), sample Fc1ccc(N/N=C/c2ccc(-c3ccc(/C=N/Nc4ccc(F)cc4)cc3)cc2)cc1 [Compound 17b] , log10(MIC) read: 0.29

// assay Candida krusei ATCC 6258 (strain I), entry C(=N\Nc1ccccc1)/c1ccc(-c2cccc(/C=N/Nc3ccccc3)c2)cc1 , log10(MIC) value = 0.89

====

# reported MIC; entries follow
Tested on: C. albicans ATCC MYA-1003(R) (strain G)
Experiment: MIC determination, in vitro antifungal assay (CLSI M27-A3)
Type: cell-based, Candida albicans
Details: Candida albicans, 48 h, MIC-0, 48 h at 35° C., read-out: MIC

The value of MIC recorded for Fc1ccc(N/N=C/c2ccc(-c3cccc(/C=N/Nc4ccc(F)cc4)c3)cc2)cc1 [Compound 17a] when tested on C. albicans ATCC MYA-1003(R) (strain G) reads 1.95 to 3.9 µg/mL

Test item COc1ccc(N/N=C(\C)c2ccc(-c3ccc(/C(C)=N/Nc4ccc(OC)cc4)cc3)cc2)cc1 [Compound 15c] ; C. albicans ATCC MYA-1003(R) (strain G); reported MIC was 7.8 to 15.6 µg/mL

Item C(=N\Nc1ccccc1)/c1ccc(-c2ccc(/C=N/Nc3ccccc3)cc2)cc1 ; assay system C. albicans ATCC MYA-1003(R) (strain G); MIC reported as > 31.3 µg/mL

====

In this section we review reported Percentage of hemolysis (±SDEV) values for a set of molecules.
Tested on: murine red blood cells (mRBCs)
Conditions: mouse, 60 min, 15.6 μg/mL
Give a bare numeral; the unit % is implied.

Sample answers from the record:
Fc1ccc(N/N=C/c2ccc(-c3cccc(/C=N/Nc4ccc(F)cc4)c3)cc2)cc1 [Compound 17a] :: 9.9
COc1ccc(N/N=C/c2ccc(-c3cccc(/C=N/Nc4ccc(OC)cc4)c3)cc2)cc1 [Compound 15a] :: 7.8

Item C/C(=N\Nc1ccc(F)cc1)c1ccc(-c2ccc(/C(C)=N/Nc3ccc(F)cc3)cc2)cc1 [Compound 17c] ; assay system murine red blood cells (mRBCs); Percentage of hemolysis (±SDEV) reported as 7.4

====

Test system: murine red blood cells (mRBCs)
Settings: mouse, 60 min, 31.3 μg/mL
Examples of compounds with documented Percentage of hemolysis (±SDEV) follow.
Provide only the numeric value, understood in %.

Fc1ccc(N/N=C/c2ccc(-c3ccc(/C=N/Nc4ccc(F)cc4)cc3)cc2)cc1 [Compound 17b] :: 9.6
N=C(N)N/N=C/c1ccc(-c2cccc(/C=N/NC(=N)N)c2)cc1 [Compound 24a] :: 3.8

Turning now to a further record.
Percentage of hemolysis (±SDEV) reported for this compound C(=N\Nc1ccccc1)/c1ccc(-c2cccc(/C=N/Nc3ccccc3)c2)cc1 : 16.7

====

Test system: C. albicans ATCC MYA-1237(R) (strain F)
Experiment: MIC determination, in vitro antifungal assay (CLSI M27-A3)
Assay type: cell-based, Candida albicans
Details: Candida albicans, 48 h, MIC-0, 48 h at 35° C., read-out: MIC
Reported MIC values follow for various compounds
Note: unit µg/mL is implicit; provide only the numeric part.

C(=N\Nc1ccccc1)/c1ccc(-c2cccc(/C=N/Nc3ccccc3)c2)cc1 :: 31.3
CC[C@H](C)C[C@H](C)CCCCCCCCC(=O)N[C@H]1C[C@@H](O)[C@@H](NCCN)NC(=O)[C@@H]2[C@@H](O)CCN2C(=O)[C@H]([C@H](O)CCN)NC(=O)[C@H]([C@H](O)[C@@H](O)c2ccc(O)cc2)NC(=O)[C@@H]2C[C@@H](O)CN2C(=O)[C@H]([C@@H](C)O)NC1=O [CAS, caspofungin, reference compound] :: 0.24
Fc1cc(F)cc(N/N=C/c2ccc(-c3cccc(/C=N/Nc4cc(F)cc(F)c4)c3)cc2)c1 [Compound 22a] :: 31.3

// returns MIC for COc1cccc(N/N=C(\C)c2ccc(-c3ccc(/C(C)=N/Nc4cccc(OC)c4)cc3)cc2)c1 [Compound 11c] with C. albicans ATCC MYA-1237(R) (strain F); value = 31.3

The compound Brc1ccc(N/N=C/c2ccc(-c3cccc(/C=N/Nc4ccc(Br)cc4)c3)cc2)cc1 [Compound 19a] on C. albicans ATCC MYA-1237(R) (strain F): MIC was 7.8

Recorded MIC for CC(C)(C)N/N=C/c1ccc(-c2ccc(/C=N/NC(C)(C)C)cc2)cc1 [Compound 23b] on C. albicans ATCC MYA-1237(R) (strain F) was 31.3

Sample Fc1ccc(N/N=C/c2ccc(-c3cccc(/C=N/Nc4ccc(F)cc4F)c3)cc2)c(F)c1 [Compound 20a] , system: C. albicans ATCC MYA-1237(R) (strain F). Its MIC is 7.8

Kindly note: C. albicans ATCC MYA-1237(R) (strain F), Fc1ccc(N/N=C/c2ccc(-c3cccc(/C=N/Nc4ccc(F)cc4)c3)cc2)cc1 [Compound 17a] , MIC value reported: 15.6

C. albicans ATCC MYA-1237(R) (strain F) data for N=C(N)N/N=C/c1ccc(-c2cccc(/C=N/NC(=N)N)c2)cc1 [Compound 24a] ; its MIC: 7.8

The recorded MIC with C. albicans ATCC MYA-1237(R) (strain F) for C/C(=N\NC(=N)N)c1ccc(-c2ccc(/C(C)=N/NC(=N)N)cc2)cc1 [Compound 24c] was 15.6

Here C/C(=N\Nc1ccc(F)cc1)c1ccc(-c2ccc(/C(C)=N/Nc3ccc(F)cc3)cc2)cc1 [Compound 17c] was tested on C. albicans ATCC MYA-1237(R) (strain F), and its MIC came to 7.8

Simply: Clc1ccc(N/N=C/c2ccc(-c3cccc(/C=N/Nc4ccc(Cl)cc4)c3)cc2)cc1 [Compound 18a] , C. albicans ATCC MYA-1237(R) (strain F), MIC = 15.6

====

Below, each entry is listed alongside its reported MIC.
System: Candida albicans ATCC 10231(R) (strain A)
Experiment: MIC determination, in vitro antifungal assay (CLSI M27-A3)
Type: cell-based
Settings: MIC-0 (no visible growth), 48 h at 35° C.
The figure you give is taken to be in µg/mL; do not add the unit.

The molecule Fc1ccc(N/N=C/c2ccc(-c3ccc(/C=N/Nc4ccc(F)cc4F)cc3)cc2)c(F)c1 [Compound 20b] , when measured on Candida albicans ATCC 10231(R) (strain A), yielded MIC of 7.8

Record COc1ccc(N/N=C(\C)c2ccc(-c3ccc(/C(C)=N/Nc4ccc(OC)cc4)cc3)cc2)cc1 [Compound 15c] has Candida albicans ATCC 10231(R) (strain A) MIC equal to 15.6

Form: item COc1ccc(N/N=C/c2ccc(-c3ccc(/C=N/Nc4ccc(OC)cc4)cc3)cc2)cc1 [Compound 15b] ; test system Candida albicans ATCC 10231(R) (strain A); MIC: 7.8

Simply: COc1ccccc1N/N=C(\C)c1ccc(-c2ccc(/C(C)=N/Nc3ccccc3OC)cc2)cc1 , Candida albicans ATCC 10231(R) (strain A), MIC = 15.6

Query Fc1cccc(N/N=C/c2ccc(-c3ccc(/C=N/Nc4cccc(F)c4)cc3)cc2)c1 [Compound 12b] on Candida albicans ATCC 10231(R) (strain A); MIC returned: 7.8
